subject_of_test: human TLR7 (Homo sapiens)
Sequence (Q9NYK1 27-1049): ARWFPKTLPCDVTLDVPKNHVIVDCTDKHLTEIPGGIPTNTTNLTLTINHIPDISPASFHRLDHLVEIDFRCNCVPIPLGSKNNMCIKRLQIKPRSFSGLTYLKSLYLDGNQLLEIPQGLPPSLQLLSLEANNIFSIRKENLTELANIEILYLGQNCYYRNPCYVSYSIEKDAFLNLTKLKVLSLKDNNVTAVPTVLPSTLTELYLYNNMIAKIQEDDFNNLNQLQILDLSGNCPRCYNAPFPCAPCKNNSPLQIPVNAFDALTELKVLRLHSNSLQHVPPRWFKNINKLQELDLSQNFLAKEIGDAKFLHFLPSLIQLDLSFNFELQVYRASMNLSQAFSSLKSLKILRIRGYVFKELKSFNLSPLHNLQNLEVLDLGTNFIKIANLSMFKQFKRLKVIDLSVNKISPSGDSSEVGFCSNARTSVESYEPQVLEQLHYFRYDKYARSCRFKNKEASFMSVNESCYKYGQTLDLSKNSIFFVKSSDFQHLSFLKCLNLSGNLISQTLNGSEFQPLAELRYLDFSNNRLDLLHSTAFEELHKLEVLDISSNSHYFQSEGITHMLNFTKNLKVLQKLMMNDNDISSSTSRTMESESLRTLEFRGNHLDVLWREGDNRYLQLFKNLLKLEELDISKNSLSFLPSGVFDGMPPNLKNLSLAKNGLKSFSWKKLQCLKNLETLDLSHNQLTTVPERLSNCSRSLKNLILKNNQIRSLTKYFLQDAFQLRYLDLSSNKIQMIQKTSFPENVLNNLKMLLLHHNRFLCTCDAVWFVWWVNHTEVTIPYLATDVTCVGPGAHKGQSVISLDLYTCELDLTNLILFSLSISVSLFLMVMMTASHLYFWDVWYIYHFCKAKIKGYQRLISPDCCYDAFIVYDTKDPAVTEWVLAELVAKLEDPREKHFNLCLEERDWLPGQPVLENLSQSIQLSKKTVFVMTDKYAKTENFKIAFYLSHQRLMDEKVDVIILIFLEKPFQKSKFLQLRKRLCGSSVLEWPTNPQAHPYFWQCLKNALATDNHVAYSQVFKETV
test_details: TLR7 inhibition reporter assay (HEK-Blue cells, SEAP reporter, gardiquimod stimulation)
test_settings: HEK-Blue cells overexpressing human TLR7, gardiquimod 7.5 μM
Procedure: TLR7/8/9 Inhibition Reporter Assays Briefly, cells are seeded into Greiner 384 well plates (15000 cells per well for TLR7, 20,000 for TLR8 and 25,000 for TLR9) and then treated with test compounds in DMSO to yield a final dose response concentration range of 0.05 nM-50 μM. […] The percent inhibition is determined as the % reduction in the HEK-Blue signal present in wells treated with agonist plus DMSO alone compared to wells treated with a known inhibitor.
Under this convention, Criterion met denotes IC50 strictly below 400 nM and Criterion not met denotes IC50 at or above 400 nM.

Please review the following examples before continuing.
compound	group
CCc1c(-c2ccc(OC)c(OC)c2)[nH]c2ccc(C3CCN(C4CCN(Cc5cnc(C)o5)CC4)CC3)cc12 [Example 124]	Criterion not met
COc1ccc(-c2[nH]c3ccc(C4CCN(C(=O)CNCCO)CC4)cc3c2C(C)C)cc1OC [Example 212]	Criterion met
COc1ccc(-c2[nH]c3ccc(C4CCN(C(=O)CNC5(CO)CCCC5)CC4)cc3c2C(C)C)cc1OC [Example 213]	Criterion met
COc1ccc(-c2[nH]c3ccc(C4CCN(CC(=O)NCCO)CC4)cc3c2C(C)C)cc1OC [Example 276]	Criterion met
COc1ccc(-c2[nH]c3ccc(C4CCN(Cc5cccnc5)CC4)cc3c2C)cc1OC [Example 47]	Criterion not met

# TODO verify IC50 < 400 nM strictly for this compound: CCc1c(-c2ccc(OC)c(OC)c2)[nH]c2ccc(C3CCN(C4CCN(Cc5cc(C)n[nH]5)CC4)CC3)cc12 [Example 131]
Criterion met

# TODO verify IC50 < 400 nM strictly for this compound: COc1ccc(-c2[nH]c3ccc(C4CCN(CC(=O)N5CCC[C@@H]5CO)CC4)cc3c2CC(F)(F)F)cc1OC [Example 371]
Criterion met

# TODO verify IC50 < 400 nM strictly for this compound: CCc1c(-c2ccc(OC)c(OC)c2)[nH]c2ccc(C3CCN(CC(C)C(F)(F)F)CC3)cc12 (stereo not drawn) [Example 180]
Criterion not met

# TODO verify IC50 < 400 nM strictly for this compound: COc1ccc(-c2[nH]c3ccc(C4CCN(CC(=O)N5CCC(N6CCN(C)CC6)CC5)CC4)cc3c2CC(F)(F)F)cc1OC [Example 363]
Criterion met

# TODO verify IC50 < 400 nM strictly for this compound: COc1ccc(-c2[nH]c3ccc(C4CCN(C(C)CN(C)C)CC4)cc3c2C)cc1OC (stereo not drawn) [Example 30]
Criterion not met

====

subject_of_test: human TLR8 (Homo sapiens)
Sequence (Q9NR97 27-1041): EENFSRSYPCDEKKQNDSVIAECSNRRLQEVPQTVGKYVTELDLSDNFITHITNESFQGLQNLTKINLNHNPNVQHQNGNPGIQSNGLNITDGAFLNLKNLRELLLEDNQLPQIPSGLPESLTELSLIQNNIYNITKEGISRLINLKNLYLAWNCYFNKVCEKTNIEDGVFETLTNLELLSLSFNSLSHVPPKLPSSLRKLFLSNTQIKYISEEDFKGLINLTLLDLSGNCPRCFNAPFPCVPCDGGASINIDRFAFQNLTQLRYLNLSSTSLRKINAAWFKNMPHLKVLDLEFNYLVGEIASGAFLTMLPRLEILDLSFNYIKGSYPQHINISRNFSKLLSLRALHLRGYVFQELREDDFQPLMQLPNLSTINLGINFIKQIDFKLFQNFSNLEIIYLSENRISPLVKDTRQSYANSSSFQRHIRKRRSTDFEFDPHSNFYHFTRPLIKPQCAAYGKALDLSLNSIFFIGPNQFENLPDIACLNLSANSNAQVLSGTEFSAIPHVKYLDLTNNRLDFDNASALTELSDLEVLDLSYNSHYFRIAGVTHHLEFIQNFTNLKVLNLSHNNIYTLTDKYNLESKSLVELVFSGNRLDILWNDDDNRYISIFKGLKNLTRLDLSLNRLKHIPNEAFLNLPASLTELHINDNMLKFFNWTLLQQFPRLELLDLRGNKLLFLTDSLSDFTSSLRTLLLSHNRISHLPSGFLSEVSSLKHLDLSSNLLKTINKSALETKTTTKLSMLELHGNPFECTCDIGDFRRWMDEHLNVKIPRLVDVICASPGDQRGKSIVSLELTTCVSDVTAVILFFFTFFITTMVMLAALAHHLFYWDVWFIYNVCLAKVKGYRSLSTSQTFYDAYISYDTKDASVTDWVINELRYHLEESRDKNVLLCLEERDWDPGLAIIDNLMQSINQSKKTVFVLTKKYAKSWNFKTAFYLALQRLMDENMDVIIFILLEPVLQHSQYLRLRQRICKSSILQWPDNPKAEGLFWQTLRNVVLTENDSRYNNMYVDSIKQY
test_details: TLR8 inhibition reporter assay (HEK-Blue cells, SEAP reporter, R848 stimulation)
test_settings: HEK-Blue cells overexpressing human TLR8, R848 15.9 μM
Under this convention, Criterion met denotes IC50 strictly below 30 nM and Criterion not met denotes IC50 at or above 30 nM.

# TODO verify IC50 < 30 nM strictly for this molecule: CCc1c(-c2ccc(OC)c(OC)c2)[nH]c2ccc(C3CCN(C4CCN(C5CCCC5)CC4)CC3)cc12 [Example 152]
Criterion not met

====

subject_of_test: human TLR9 (Homo sapiens, UniProt Q9NR96)
Sequence (Q9NR96 26-1032): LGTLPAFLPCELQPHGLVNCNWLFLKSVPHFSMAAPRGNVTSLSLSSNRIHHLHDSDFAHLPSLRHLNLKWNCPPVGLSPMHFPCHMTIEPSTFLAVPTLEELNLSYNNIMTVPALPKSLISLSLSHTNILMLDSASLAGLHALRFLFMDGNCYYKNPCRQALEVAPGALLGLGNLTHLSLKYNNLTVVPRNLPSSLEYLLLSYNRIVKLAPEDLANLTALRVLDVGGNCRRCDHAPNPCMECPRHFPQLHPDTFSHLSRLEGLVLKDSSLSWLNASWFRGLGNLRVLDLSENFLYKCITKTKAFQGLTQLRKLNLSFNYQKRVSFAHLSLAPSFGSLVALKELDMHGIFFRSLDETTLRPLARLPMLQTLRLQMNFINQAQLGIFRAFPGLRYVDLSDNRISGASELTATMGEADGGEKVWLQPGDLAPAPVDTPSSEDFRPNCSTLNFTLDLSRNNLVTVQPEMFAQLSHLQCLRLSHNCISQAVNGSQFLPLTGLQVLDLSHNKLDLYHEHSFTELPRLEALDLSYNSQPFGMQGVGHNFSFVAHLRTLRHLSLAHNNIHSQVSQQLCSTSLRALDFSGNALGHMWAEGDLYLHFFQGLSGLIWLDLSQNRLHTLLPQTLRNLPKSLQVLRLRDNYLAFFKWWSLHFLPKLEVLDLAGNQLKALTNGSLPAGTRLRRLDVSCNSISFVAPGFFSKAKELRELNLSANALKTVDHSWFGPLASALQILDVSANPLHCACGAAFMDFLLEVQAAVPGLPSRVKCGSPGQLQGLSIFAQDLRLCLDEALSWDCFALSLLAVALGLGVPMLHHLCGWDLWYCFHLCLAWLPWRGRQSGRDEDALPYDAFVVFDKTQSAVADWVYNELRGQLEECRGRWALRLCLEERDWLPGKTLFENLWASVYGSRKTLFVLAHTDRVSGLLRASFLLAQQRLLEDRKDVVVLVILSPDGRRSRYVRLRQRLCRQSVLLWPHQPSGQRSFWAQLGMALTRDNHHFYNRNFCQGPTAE
test_details: TLR9 inhibition reporter assay (HEK-Blue cells, SEAP reporter, ODN2006 stimulation)
test_settings: HEK-Blue cells overexpressing human TLR9, ODN2006 5 nM
pIC50: −log10 of the molar value.
# pIC50 >= 6 gives label 1, anything below gives label 0

Please review the following examples before continuing.
>>> print(df.to_string())
                                   compound    group
0  CCCc1c(-c2ccc(OC)c(OC)c2)[nH]c2ccc(C3CCN(C4CCN(CC(C)C)CC4)CC3)cc12  label 1
1  COc1ccc(-c2[nH]c3ccc(C4CCNCC4F)cc3c2C(C)C)cc1OC (single isomer, unassigned) [Example 322]  label 0
2  COc1ccc(-c2[nH]c3ccc(C4CCN(C5CCN(CCCC(=O)O)CC5)CC4)cc3c2C)cc1OC  label 0

# check: pIC50 of CCN(CC)C(=O)C1CCCN(CC(=O)N2CCC(c3ccc4[nH]c(-c5ccc(OC)c(OC)c5)c(C(C)C)c4c3)CC2)C1 (centres unmarked) [Example 224] is greater than or equal to 6
label 1

# check: pIC50 of COc1ccc(-c2[nH]c3ccc(C4CCN(CCN(C)CC5CC5)CC4)cc3c2C)cc1OC is greater than or equal to 6
label 1

# check: pIC50 of CCc1c(-c2ccc(OC)c(OC)c2)[nH]c2cc(OC)c(C3CCN(C4CCN(C(C)C)CC4)CC3)cc12 is greater than or equal to 6
label 1

# check: pIC50 of CCN(CC)C(=O)C1CCCN(CC(=O)N2CCC(c3ccc4[nH]c(-c5ccc(OC)c(OC)c5)c(C(C)C)c4c3)CC2)C1 (centres unmarked) [Example 247] is greater than or equal to 6
label 0

# check: pIC50 of COc1ccc(-c2[nH]c3ccc(C4CCN(CC(=O)N5CCN(C(C)=O)CC5)CC4)cc3c2CC(F)(F)F)cc1OC is greater than or equal to 6
label 0

# check: pIC50 of COc1ccc(-c2[nH]c3ccc(C4CCN(CC(=O)NCCc5ccc(S(N)(=O)=O)cc5)CC4)cc3c2CC(F)(F)F)cc1OC is greater than or equal to 6
label 0

# check: pIC50 of CCc1c(-c2ccc(OC)c(OC)c2)[nH]c2ccc(C3CCN(C(=O)CNC45CC6CC(CC(O)(C6)C4)C5)CC3)cc12 is greater than or equal to 6
label 0

# check: pIC50 of COc1ccc(-c2[nH]c3ccc(C4CCN(C5CCN(CC6CCOC6)CC5)CC4)cc3c2C)cc1OC (centres unmarked) is greater than or equal to 6
label 1
